- Test system: Human B Lymphocyte cell line, SU-DHL-8
- assay.protocol: Relative cell viability, SU-DHL-8 (CCK-8)
- Format: cell-based
- condition: SU-DHL-8, 30 μM, 48 hours, untreated (DMSO) = 100%
Each record is given criterion met if its reported Relative cell viability (%) is strictly below 0.6%. Records at or above 0.6% are given criterion not met.

molecule	class.label
CC1(C)CCN(CCCCCCCCCCCCNC(=O)c2cccnc2N)C1	criterion not met
CC1CCN(CCCCCCCCCCCCNC(=O)c2cccnc2N)C1 (centres unmarked)	criterion not met
Nc1ncccc1C(=O)NCCCCCCCCCCCCN1CCC(F)C1 (centres unmarked)	criterion met
CC1CN(C)C(CCCCCCCCCCCCNc2ccc3cncnc3n2)N1 (centres unmarked)	criterion not met
Cc1ccc(C2CCN(CCCCCCCCCCCCNC(=O)c3cccnc3N)CC2)cc1	criterion not met
